Biological target: UniProtKB P00803
Sequence (P00803 whole entry): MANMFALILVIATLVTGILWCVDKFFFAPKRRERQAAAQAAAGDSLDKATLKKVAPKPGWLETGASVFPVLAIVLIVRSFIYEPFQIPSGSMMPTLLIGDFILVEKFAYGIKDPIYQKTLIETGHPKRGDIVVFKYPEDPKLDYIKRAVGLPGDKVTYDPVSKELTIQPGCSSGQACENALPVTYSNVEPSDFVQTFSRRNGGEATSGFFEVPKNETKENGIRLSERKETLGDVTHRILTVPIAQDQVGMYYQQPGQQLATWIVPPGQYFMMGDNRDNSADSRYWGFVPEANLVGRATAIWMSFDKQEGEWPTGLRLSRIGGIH
Experiment: Inhibition of Escherichia coli type 1 signal peptidase lepB assessed as residual activity at 0.625 uM preincubated for 10 mins followed by Dabcyl-VGGTATAYGAFSRPGLE-(EDANS)-OH substrate addition measured after 2 hrs by FRET based assay (reference value: 100%)
Square brackets hold non-standard residues; d marks the D form. Peptide text beside a SMILES is read from it. * marks the point of attachment. Benzoyl(4-(4-hexylphenyl)) = CCCCCCc1ccc(-c2ccc(C(=O)*)cc2)cc1; X1 = C[C@H](N*)B1OC2C[C@@H]3C[C@@H](C3(C)C)[C@]2(C)O1; boroAla = C[C@H](N*)B(O)O; Orn = NCCC[C@H](N)C(=O)O
The entries below are paired with their reported Activity.
A complete answer gives the number followed by the unit.

Consider the worked cases shown below.
Inquiry: What value of Activity has been reported for the following compound? C[C@@H]1NC(=O)[C@@H](NC(=O)[C@H](C)NC(=O)[C@@H](NC(=O)[C@H](CCCN)NC(=O)c2ccc(=O)n(-c3ccccc3)c2)[C@@H](C)O)Cc2cn(nn2)CCO[C@@H]2C[C@@H]3OB1O[C@@H]3C2
Reply text: 66.9%

Inquiry: What value of Activity has been reported for the following compound? CCCCCCc1ccc(-n2cc(C(=O)N[C@@H](CCCN)C(=O)N[C@H](C(=O)N[C@@H](C)C(=O)N[C@H]3Cc4cn(nn4)CCO[C@@H]4C[C@@H]5OB(O[C@@H]5C4)[C@H](C)NC3=O)[C@@H](C)O)ccc2=O)cc1
Reply text: 32.6%

Inquiry: What value of Activity has been reported for the following compound? CCCCCCc1ccc(-c2ccc(C(=O)N[C@@H](CCCN)C(=O)N[C@H](C(=O)N[C@@H](C)C(=O)N[C@@H](CC(N)=O)C(=O)N[C@@H](C)B(O)O)[C@@H](C)O)cc2)cc1 ({Benzoyl(4-(4-hexylphenyl))}-[Orn]TAN-boroAla)
Reply text: 20.6%

Inquiry: What value of Activity has been reported for the following compound? C[C@@H]1NC(=O)[C@@H](NC(=O)[C@H](C)NC(=O)[C@@H](NC(=O)[C@H](CCCN)NC(=O)c2ccc(-c3ccccc3)cc2)[C@@H](C)O)Cc2cn(nn2)CCO[C@@H]2C[C@@H]3OB1O[C@@H]3C2
Reply text: 11.8%

Inquiry: What value of Activity has been reported for the following compound? CCCCCCc1ccc(-c2ccc(C(=O)N[C@@H](CCCN)C(=O)N[C@H](C(=O)N[C@@H](C)C(=O)N[C@H]3Cc4cn(nn4)CCO[C@@H]4C[C@@H]5OB(O[C@@H]5C4)[C@H](C)NC3=O)[C@@H](C)O)cc2)cc1
Reply text: 27.1%

Others:
Inquiry: What value of Activity has been reported for the following compound? CCCCCCC#Cc1cncc(C(=O)N[C@@H](CCCN)C(=O)N[C@H](C(=O)N[C@@H](C)C(=O)N[C@H]2Cc3cn(nn3)CCO[C@@H]3C[C@@H]4OB(O[C@@H]4C3)[C@H](C)NC2=O)[C@@H](C)O)c1
Reply text: 13%

Inquiry: What value of Activity has been reported for the following compound? CCCCCCc1ccc(-c2ccc(C(=O)N[C@@H](CCCN)C(=O)N[C@H](C(=O)N[C@@H](C)C(=O)N[C@@H](CC(N)=O)C(=O)N[C@@H](C)B3OC4C[C@@H]5C[C@@H](C5(C)C)[C@]4(C)O3)[C@@H](C)O)cc2)cc1 (stereo not given in full) ({Benzoyl(4-(4-hexylphenyl))}-[Orn]TAN-X1)
Reply text: -9.9%

Inquiry: What value of Activity has been reported for the following compound? CCCCCCc1ccc(-c2ccc(C(=O)N[C@@H](CCCN)C(=O)N[C@H](C(=O)N[C@@H](C)C(=O)N[C@H]3Cc4cn(nn4)CCN4C[C@@H]5OB(O[C@@H]5C4)[C@H](C)NC3=O)[C@@H](C)O)cc2)cc1
Reply text: 36.3%
